ASSAY_REMARKS: Particle size of nucleic acid lipid particles (Luc2-siRNA)
Format: physicochemical
TEST_CONDITIONS: compound/DSPC/cholesterol/DMG-PEG2000 50/10/38.5/1.5
The class of a record is decided solely by its measured Particle size (nm); consult low end = under 70 nm, middle = from 70 nm up to 80 nm, high end = 80 nm and over

{"MOLECULE": "CCCCCCCCCCCCC(CCCCCCCCC(=O)OCC(CCCC)CCCCCC)OC(=O)OCCN(CC)CCN(CC)CC (centres unmarked)", "ASSIGNED_LABEL": "low end"}

Exercise: Class? Entry: CCCCCCC(CCCC)COC(=O)CCCC(CCCCCC)OC(=O)OCCN(CC)CCN(CC)CC (centres unmarked)
Solution: high end

Exercise: Class? Entry: CCCCCCC(CCCC)COC(=O)CCCCC(CCCCCC)OC(=O)OCCN(CCN(CC)CC)C(C)C (centres unmarked)
Solution: high end

Exercise: Class? Entry: CCCCCCCCCCCC(=O)OCCN(CCOC(=O)OC(CCCCCC)CCCC(=O)OCC(CCCCCC)CCCCCCCC)CCN(CC)CC (centres unmarked)
Solution: low end

Exercise: Class? Entry: CCCCCCCCCC(=O)OCCN(CCOC(=O)OC(CCCCCC)CCCCCCCCC(=O)OCC(CCCCCC)CCCCCCCC)CCN(CC)CC (centres unmarked)
Solution: middle

Exercise: Class? Entry: CCCCCCC(CCCC)COC(=O)CCCCCCC(CCCCCC)OC(=O)OCCN(CCN(CC)CC)C(C)C (centres unmarked)
Solution: high end

Exercise: Class? Entry: "CCCCC/C=C\C/C=C\CCCCCCCCN(CCCCCCCCC)C(=O)OCCN(C)CCN(C)C"
Solution: high end

Exercise: Class? Entry: CCCCCCCCC(CCCCCC)COC(=O)CCCC(CCCCCC)OC(=O)OCCN(CC)CCN(CC)CC (centres unmarked)
Solution: middle

---

Please provide measured Relative amount of FVII protein (%) for the entries that follow.
System: Factor VII (FVII) protein
ASSAY_REMARKS: Measurement of Factor VII (FVII) protein in mouse plasma after FVII-siRNA lipid particles
Assay type: in vivo, C57BL6/J mice
TEST_CONDITIONS: 0.1 mg/kg caudal vein, plasma 24 hours after administration, PBS group = 100%
Procedure: The Factor VII (FVII) protein was measured according to the method described in Nature Biotechnology (2010) 28, 172-176. C57BL6/J mice were randomly grouped (n=3). A dispersion liquid of nucleic acid lipid particles was prepared by the same method as that in <Preparation of nucleic acid lipid particles>, except that FVII-siRNA having the sequence described in Molecular Therapy (2009) 17, p. […] The amount of FVII protein was quantified using the obtained plasma and a Biophen FVII assay kit (Aniara). […]
Give bare numbers, in %.

# example entries with known answers
{"MOLECULE": "CCCCCCCCCC(=O)OCCN(CCOC(=O)OC(CCCCCC)CCCCCCCCC(=O)OCC(CCCCCC)CCCCCCCC)CCN(CC)CC (centres unmarked)", "TEST_TARGET": "Factor VII (FVII) protein", "Relative amount of FVII protein (%)": 2}
{"MOLECULE": "CCCCCCC(CCCC)COC(=O)CCCCCCCCC(CCCCCC)OC(=O)OCCN(CCOC(=O)CCCCC)CCN(CC)CC (centres unmarked)", "TEST_TARGET": "Factor VII (FVII) protein", "Relative amount of FVII protein (%)": 7}
{"MOLECULE": "CCCCCCCCC(CCCCCC)COC(=O)CCCC(CCCCCC)OC(=O)OCCN(CCN(CC)CC)C(C)C (centres unmarked)", "TEST_TARGET": "Factor VII (FVII) protein", "Relative amount of FVII protein (%)": 13}
{"MOLECULE": "CCCCCCCC(CCCCCCC)CC(=O)OCCCCCCC(CCCCCCOC(=O)CC(CCCCCCC)CCCCCCC)OC(=O)OCCN(CC)CCN(CC)CC", "TEST_TARGET": "Factor VII (FVII) protein", "Relative amount of FVII protein (%)": 6}
{"MOLECULE": "CCCCC/C=C\\C/C=C\\CCCCCCCCC(CCCCCCCC/C=C\\C/C=C\\CCCCC)OC(=O)OCCN(CC)CCN(C)C", "TEST_TARGET": "Factor VII (FVII) protein", "Relative amount of FVII protein (%)": 24}

I have 2 molecules here; please give me Relative amount of FVII protein (%) for each one.
1. CCCCCCCC/C=C\CCCCCCCC(=O)OCCCCCCC(CCCCCCOC(=O)CCCCCCC/C=C\CCCCCCCC)OC(=O)OCCN(CC)CCN(CC)CC
2. CCCCCCCCC(CCCCCC)C(=O)OCCCCCCC(CCCCCCOC(=O)C(CCCCCC)CCCCCCCC)OC(=O)OCCN(CCN(CC)CC)C(C)C (centres unmarked)

Solution:
1: 18; 2: 3

I have 3 molecules here; please give me Relative amount of FVII protein (%) for each one.
1. CCCCCCCCCCCC(=O)OCCN(CCOC(=O)OC(CCCCCC)CCCC(=O)OCC(CCCCCC)CCCCCCCC)CCN(CC)CC (centres unmarked)
2. CCCCC/C=C\C/C=C\CCCCCCCCC(CCCCCCCC/C=C\C/C=C\CCCCC)OC(=O)OCCN(CC)CCN(CC)CC
3. CCCCCCCCCCC(CCCCCCCCCCC(=O)OCC(CCCC)CCCCCC)OC(=O)OCCN(CC)CCN(CC)CC (centres unmarked)

Solution:
[3, 5, 17]

I have 4 molecules here; please give me Relative amount of FVII protein (%) for each one.
1. CCCCCCCCCC(CCCCCCCCC(=O)OCC(CCCC)CCCCCC)OC(=O)OCCN(CC)CCN(CC)CC (centres unmarked)
2. CCCCC/C=C\C/C=C\CCCCCCCCC(CCCCCCCC/C=C\C/C=C\CCCCC)N(C)CCN(C)C [Comparative Example 9, reference compound]
3. CCCCCCCCCCCCC(CCCCCCCCC(=O)OCC(CCCC)CCCCCC)OC(=O)OCCN(CC)CCN(CC)CC (centres unmarked)
4. CCCCCCCCCCCC(=O)OCCN(CCOC(=O)OC(CCCCCC)CCCCCCCCC(=O)OCC(CCCC)CCCCCC)CCN(CC)CC (centres unmarked)

Solution:
17
44
11
15

---

Please provide measured Particle size (nm) for the entries that follow.
ASSAY_REMARKS: Particle size of nucleic acid lipid particles (Luc2-siRNA)
Format: physicochemical
TEST_CONDITIONS: compound/DSPC/cholesterol/DMG-PEG2000 50/10/38.5/1.5
One number for each entry, in nm.

# example entries with known answers
{"MOLECULE": "CCCCC/C=C\\C/C=C\\CCCCCCCCC(CCCCCCCC/C=C\\C/C=C\\CCCCC)OC(=O)OCCN(C)CCN1CCOCC1", "Particle size (nm)": 78.0}
{"MOLECULE": "CCCCCCCCC(=O)OCCN(CCOC(=O)OC(CCCCCC)CCCCCCCCC(=O)OCCC(CCCCC)CCCCC)CCN(CC)CC (centres unmarked)", "Particle size (nm)": 66.8}
{"MOLECULE": "CCCCC/C=C\\C/C=C\\CCCCCCCCC(CCCCCCCC/C=C\\C/C=C\\CCCCC)OC(=O)OCCN(C)CCN(CC)CC", "Particle size (nm)": 69.2}
{"MOLECULE": "CCCCCCCC/C=C\\CCCCCCCC(=O)OCCN(CCOC(=O)OC(CCCCCC)CCCCCCCCC(=O)OCC(CCCC)CCCCCC)CCN(CC)CC (centres unmarked)", "Particle size (nm)": 75.0}
{"MOLECULE": "CCCCC/C=C\\C/C=C\\CCCCCCCC(CCCCCCCCCC)OC(=O)OCCN(CC)CCN(C)C (centres unmarked)", "Particle size (nm)": 67.9}

I have 4 molecules here; please give me Particle size (nm) for each one.
1. CCCCC/C=C\C/C=C\CCCCCCCCC(CCCCCCCC/C=C\C/C=C\CCCCC)OC(=O)OCCN(C)CCN(C)C
2. CCCCC/C=C\C/C=C\CCCCCCCCN(CCCCCCCC/C=C\C/C=C\CCCCC)C(=O)OCC1CCCN(C)C1 (centres unmarked) [Reference Example 2, reference compound]
3. CCCCC/C=C\C/C=C\CCCCCCCCN(CCCCCCCC/C=C\C/C=C\CCCCC)C(=O)OCCN1CCN(C)CC1 [Comparative Example 5, reference compound]
4. CCCCCCCCCCC(CCCCCCCCC(=O)OCC(CCCC)CCCCCC)OC(=O)OCCN(CC)CCN(CC)CC (centres unmarked)

Solution:
[101.6, 118.4, 75.1, 70.7]

I have 3 molecules here; please give me Particle size (nm) for each one.
1. CCCCCCC(CCCCCCCCC(=O)OCCC(CCCCC)CCCCC)OC(=O)OCCN(CCO)CCN(CC)CC (centres unmarked)
2. CCCCCCC(CCCC)COC(=O)CCCCCCCCC(CCCCCC)OC(=O)OCCN(CCOC(=O)CCCCC)CCN(CC)CC (centres unmarked)
3. CCCCC/C=C\C/C=C\CCCCCCCCN(CCCCCCCC/C=C\C/C=C\CCCCC)C(=O)OC1CCCN(CCN(C)C)C1 (centres unmarked)

Solution:
1: 257; 2: 100; 3: 66.1

I have 2 molecules here; please give me Particle size (nm) for each one.
1. CCCCCCCCCC(CCCCCCCCC(=O)OCC(CCCC)CCCCCC)OC(=O)OCCN(CC)CCN(CC)CC (centres unmarked)
2. CCCCCCCC(CCCCCCC)COC(=O)CCCCCCCCC(CCCCCC)OC(=O)OCCN(CCN(CC)CC)C(C)C (centres unmarked)

Solution:
65.4
75.8
